Molecular target: human somatostatin receptor subtype SSTR2 (human) (UniProt P30874)
Sequence (P30874 whole entry): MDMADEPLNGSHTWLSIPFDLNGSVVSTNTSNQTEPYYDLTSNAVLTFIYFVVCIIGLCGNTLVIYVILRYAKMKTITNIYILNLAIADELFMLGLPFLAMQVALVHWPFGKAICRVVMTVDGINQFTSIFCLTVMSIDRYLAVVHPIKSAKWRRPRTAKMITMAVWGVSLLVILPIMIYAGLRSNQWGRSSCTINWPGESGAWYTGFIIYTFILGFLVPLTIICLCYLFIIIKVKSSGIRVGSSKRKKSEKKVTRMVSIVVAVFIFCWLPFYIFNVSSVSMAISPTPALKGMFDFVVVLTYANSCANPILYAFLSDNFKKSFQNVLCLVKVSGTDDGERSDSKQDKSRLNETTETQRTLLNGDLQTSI
Test: FACS, transfected HEK-293 cells
*1 amine or outer side, *2 acyl side, *3 side chain or, on linkers, in order; H or OH if unused. Bridges are numbered along the chain shown (N, C = ends). Primed or numbered codes have the meaning given here. [ ]: non-standard residue; d: D form. N(2-mercaptoethyl)Gly = O=C(CN(CCS[*:3])[*:1])[*:2]; FITC′ = fluorescein isothiocyanate; GABA = NCCCC(=O)O
readout_kind: Relative binding affinity (%)

| binder | quantitative_readout |
| --- | --- |
| {FITC′-GABA}-[dF]CFW[dW]RTF[N(2-mercaptoethyl)Gly]-NH2 (disulfide 2-9) [Compound 15] | 5 |

(A) XCFWXXTFX (FITC-GABA-DPhe-Cys*-Phe-Trp-DTrp-HomoLys-Thr-Phe-GlyS2*-NH2 (* = S-S bond; HomoLys = homolysine; GlyS2 = N-thioethyl glycine; C-terminal amide)) [Compound 16]
(B) {FITC′-GABA}-[dF]CRFF[dW]KTF[N(2-mercaptoethyl)Gly]-NH2 (disulfide 2-10) [Compound 8]
(C) XCFWXKTFX (FITC-GABA-DPhe-Cys*-Phe-Trp-DTrp-Lys-Thr-Phe-GlyS2*-NH2 (* = S-S bond; GlyS2 = N-thioethyl glycine; FITC-GABA on the N-terminal amine; C-terminal amide)) [Compound 1]
List items by Relative binding affinity in falling order. Arrange the labels as the request states and list them. C, B, A

(1) {FITC′-GABA}-[dF]RCF[dW]KTF[N(2-mercaptoethyl)Gly]-NH2 (disulfide 3-9) [Compound 2]
(2) {FITC′-GABA}-[dF]RCY[dW]KTF[N(2-mercaptoethyl)Gly]-NH2 (disulfide 3-9) [Compound 6]
Return label of the item with the larger Relative binding affinity. Candidates: 1 , 2 . Lab log: write the label of the selected item as the result. 1
(1: 5%, 2: 1.5%)
